PROCEDURE SUMMARY: Toxicity liver stage against HepG2, at 10uM
Type: cell-based
Set-up: test concentration 10 uM, cell line HepG2-A16-CD81EGFP
SETTINGS: human, HepG2-A16-CD81EGFP cells; read-out: INHIBITION
# cytotoxicity at 10 µM per record follows
# unit: % | format: bare number

Below: 5 compounds and their reported cytotoxicity at 10 µM.
{"columns": ["COMPOUND", "MEASUREMENT NAME", "RESULT UNITS", "RECORDED NUMBER"],
 "data": [
  ["CCc1cccc(OCCN(C)C(=O)c2ccccc2NCC(=O)O)c1", "cytotoxicity at 10 µM", "%", -2.69],
  ["Cc1cccc(N2CC3(CCN(S(=O)(=O)c4ccccc4)C3)CC2=O)c1 (centres undefined)", "cytotoxicity at 10 µM", "%", 11],
  ["CC1(c2ccccc2)CCCN(Cc2cncn2C2CC2)C1 (centres undefined)", "cytotoxicity at 10 µM", "%", -1.06],
  ["Cn1cnnc1CNC(=O)C1CCCN(Cc2cccc(F)c2)C1 (centres undefined)", "cytotoxicity at 10 µM", "%", 5.49],
  ["CC(Cn1ccnc1)NC(=O)NCCN1CCCCCC1=O (centres undefined)", "cytotoxicity at 10 µM", "%", -1.26]
]}

query: Sample `CN(C)c1cc(CNC(=O)Nc2nccs2)ccn1` — what was its cytotoxicity at 10 µM?
result: 2.3

query: Dear colleague, I am looking for the recorded cytotoxicity at 10 µM of the following compound: CCN(Cc1cccnc1)CC1CCCO1 (centres undefined)
result: -10.7

query: Can you look up the measured cytotoxicity at 10 µM of `O=C(NCC1CCOCC1)c1cc(-c2ccncc2)c2cnccc2n1` for me?
result: -0.762

query: Entry under review: `CC[C@H](C)[C@H](N)C(=O)N1CC(=O)c2sc(NCc3ccccc3)nc2C1` . Reported cytotoxicity at 10 µM?
result: -9.58

query: For the compound CN(c1ccncn1)C1CC2(CCN(C(=O)c3cccn3C)C2)C1 (centres undefined) , what cytotoxicity at 10 µM is on record?
result: -8.05

query: Sample `Cc1cccc(NC(=O)CCNCc2c(C)nn(C)c2N(C)C)n1` — what was its cytotoxicity at 10 µM?
result: 7.82

query: Look up cytotoxicity at 10 µM: `CC(=O)Nc1ccc(C(=O)N(C)Cc2cccc(F)c2)s1`
result: 2.82

query: Consider the compound `O=C(CC1CCCC1)NCCS(=O)(=O)N1CCN(c2ccccn2)CC1` and give its measured cytotoxicity at 10 µM.
result: 0.766

query: Name the recorded cytotoxicity at 10 µM for `CN(Cc1cnn(C)c1)S(=O)(=O)N1CCCCC1` .
result: -3.38

query: For `Cc1nnc(C2CCN(C(=O)c3cnc4ccccc4n3)CC2)s1` , what is its reported cytotoxicity at 10 µM?
result: 7.1

query: What measured cytotoxicity at 10 µM goes with `Cc1nc(C)c(COc2ccc(S(=O)(=O)N(C)C)cc2)s1` ?
result: -0.242

query: May I ask what cytotoxicity at 10 µM has been recorded for CCC(C)S(=O)(=O)N(Cc1ccco1)Cc1ccccc1O (centres undefined) ?
result: 9.99

* * *

PROCEDURE SUMMARY: Toxicity liver stage against HepG2, at 10uM
Type: cell-based
Parameters: test concentration 10 uM, cell line HepG2-A16-CD81EGFP
SETTINGS: human, HepG2-A16-CD81EGFP cells; read-out: INHIBITION
MEASUREMENT NAME: cytotoxicity at 10 µM
Respond with a number, then the unit of measure.

These recorded examples may help you get a feel for the data.
{"columns": ["COMPOUND", "RESULT"],
 "data": [
  ["Cc1ncc(CC(=O)N2CCC(N3C[C@@H](C)O[C@@H](C)C3)CC2)c(=O)[nH]1", "3.26%"],
  ["O=c1ccc2c(n1CC1CCOCC1)CCN(Cc1ccoc1)CC2", "-128%"],
  ["CC(CNS(C)(=O)=O)Oc1cccc(Cl)c1 (centres undefined)", "4.6%"],
  ["CN1CCN(S(=O)(=O)c2cccc(F)c2)c2ccccc21", "38.5%"]
]}

query: // lookup cytotoxicity at 10 µM for CS(=O)(=O)N1CCCC12CCCN(C(=O)c1ccc[nH]1)C2 (centres undefined)
result: -145%

query: What measured cytotoxicity at 10 µM goes with `CC(=O)N1CCN(C(=O)C[C@@H]2C[C@@H](C(C)C)[C@H](CC#N)C=C2C)CC1` ?
result: -1.01%

* * *

PROCEDURE SUMMARY: Toxicity liver stage against HepG2, at 10uM
Type: cell-based
Set-up: test concentration 10 uM, cell line HepG2-A16-CD81EGFP
SETTINGS: human, HepG2-A16-CD81EGFP cells; read-out: INHIBITION
Reported values of cytotoxicity at 10 µM for individual entries
Supply the numeric figure in %, leaving out any unit text.

Worked examples follow.
{"columns": ["MOLECULE", "cytotoxicity at 10 µM (%)"],
 "data": [
  ["O=C(NCCSc1ccccc1)[C@H]1CNC[C@@H](C(=O)N2CCOCC2)C1", -3.03],
  ["Cc1cnc(NC2CCc3c(ccc(=O)n3C)C2)nc1 (stereo unspecified)", -149],
  ["FC(F)(F)c1c[nH]c(C2CCN(c3ncccn3)CC2)n1", -5.1],
  ["O=C(CCn1c(C(F)(F)F)cc2cccnc21)N1CCOCC1", -22.6]
]}

query: Fill blank: measured cytotoxicity at 10 µM of the molecule `C=Cn1cc(CN2CCC(c3ncc(Cl)cc3S(C)(=O)=O)CC2)c(C)n1` is ____.
result: 7.38

query: Suppose we examine the molecule `CN(CCc1ccccc1)Cc1nc2c(cnn2C)c(=O)[nH]1` ; what cytotoxicity at 10 µM value has been reported?
result: -3.18

* * *

PROCEDURE SUMMARY: Toxicity liver stage against HepG2, at 10uM
Assay type: cell-based
Design: test concentration 10 uM, cell line HepG2-A16-CD81EGFP
SETTINGS: human, HepG2-A16-CD81EGFP cells; read-out: INHIBITION
MEASUREMENT NAME: cytotoxicity at 10 µM
The reply must contain the numeric value and, after it, the unit.

Completed entries (count: 5):
{"columns": ["COMPOUND", "MEASUREMENT NAME", "RESULT"],
 "data": [
  ["Cc1cc(CN2CCN(C(C)C(=O)NCc3cccs3)CC2)no1 (stereo unspecified)", "cytotoxicity at 10 µM", "-0.335%"],
  ["N#Cc1ccc(N2CCN(c3cnccn3)CC2)c(C(F)(F)F)c1", "cytotoxicity at 10 µM", "46.6%"],
  ["Cc1ccc(CN(Cc2c[nH]cn2)C2CC(C)(C)NC(C)(C)C2)o1", "cytotoxicity at 10 µM", "-0.105%"],
  ["CC(C)(C)c1n[nH]c(C2CN(C(=O)C3=COCCC3)CCO2)n1 (stereo unspecified)", "cytotoxicity at 10 µM", "-5.74%"],
  ["CCc1nc(CSC2CCCN(c3cnn(C)c3)C2=O)cs1 (stereo unspecified)", "cytotoxicity at 10 µM", "14.1%"]
]}

query: Please report the recorded cytotoxicity at 10 µM for `CC(C)Cc1cc(C(=O)N2CCCN(c3cccnn3)CC2)[nH]n1` .
result: -10.5%

query: Form field: reported cytotoxicity at 10 µM of CS(=O)(=O)N1CCN(c2cc(N3CCCC3CO)ncn2)CC1 (stereo unspecified)
result: 3.51%

query: I'd like to know its cytotoxicity at 10 µM. The compound in question is O=C(NC1CCN(c2ccccc2OC(F)F)C1)c1cccnc1 (stereo unspecified)
result: 6.89%

query: Please report the recorded cytotoxicity at 10 µM for CC(=O)Nc1nc(C(=O)N2CCCC(n3nc(C)nc3C)C2)cs1 (stereo unspecified) .
result: -2.06%

query: Param item = `Cc1cccc(C(=O)N2CC[C@]3(C[C@H](OCc4ccccn4)CO3)C2)c1` ; retrieve measured cytotoxicity at 10 µM.
result: -70.9%

query: cytotoxicity at 10 µM lookup needed for `O=C1COC2(CCN(Cc3ccoc3)CC2)CN1c1ccsc1` , thanks.
result: 3.09%

* * *

PROCEDURE SUMMARY: Toxicity liver stage against HepG2, at 10uM
Format: cell-based
Design: test concentration 10 uM, cell line HepG2-A16-CD81EGFP
SETTINGS: human, HepG2-A16-CD81EGFP cells; read-out: INHIBITION
Note to self: use true (1) only for cytotoxicity at 10 µM readings below -10%; a reading exactly at -10% still gets false (0).

// below: answered compounds
{"columns": ["COMPOUND", "LABEL CLASS"],
 "data": [
  ["CN(CCc1ccccn1)S(=O)(=O)N1CCCC1c1ccco1 (stereo unspecified)", "true (1)"],
  ["CNS(=O)(=O)CCCn1nnc(-c2ccc(F)c(C)c2)n1", "false (0)"],
  ["FC(F)(F)c1ccc2nc([C@H]3CCN(C4CCOCC4)C3)[nH]c2c1", "false (0)"]
]}

query: Does this compound meet the criterion cytotoxicity at 10 µM < -10%? `COc1cccc(-c2nc(C)c(C(=O)N[C@H](CO)CC(C)C)s2)c1`
result: false (0)

query: Report whether reported cytotoxicity at 10 µM is lower than -10% (strictly) for COc1ccc(COCC(O)CNC(=O)c2ccncc2)cc1 (stereo unspecified)
result: false (0)

query: Does the reported cytotoxicity at 10 µM of the following compound sit strictly below -10%? `CC(C)CN1C[C@@H]2C[C@H](C(=O)NCc3cccnc3)[C@H](C1)O2`
result: false (0)

query: Identify whether the compound COC(=O)C1CCCN1CC(=O)NCc1ccc(OCC(N)=O)cc1 (stereo unspecified) records cytotoxicity at 10 µM below -10%.
result: false (0)

query: For `O=C(O)c1ccc(S(=O)(=O)Nc2ccc(Cl)c(F)c2)c(F)c1` , is the recorded cytotoxicity at 10 µM below the cut-off of -10%?
result: true (1)

query: # check: cytotoxicity at 10 µM < -10% for `O=C(CN1CCCCCC1)NCc1cccnc1Oc1ccccc1`
result: true (1)

query: Is -10% strictly greater than the compound's reported cytotoxicity at 10 µM? compound: `CN1CCOCC12CCN(Cc1ccoc1)CC2`
result: false (0)

query: Does this compound meet the criterion cytotoxicity at 10 µM < -10%? `CC(C)N(C)[C@@H]1CCN(C(=O)c2ccc[nH]2)[C@H]1Cc1cnn(C)c1`
result: true (1)
